Biological target: T1, recombinant human CD3 epsilon/delta heterodimer (human, UniProt P07766 23-126; P04234 22-105)
T1 construct: Recombinant heterodimer used as analyte in Octet; also called hCD3 E/D; human CD3E/D
T1 sequence (P07766 23-126, stated change not applied, chain 1 of 2): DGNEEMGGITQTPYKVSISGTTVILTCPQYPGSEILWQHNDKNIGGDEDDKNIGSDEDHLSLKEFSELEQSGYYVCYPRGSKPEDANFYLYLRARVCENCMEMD
T1 sequence (P04234 22-105, stated change not applied, chain 2 of 2): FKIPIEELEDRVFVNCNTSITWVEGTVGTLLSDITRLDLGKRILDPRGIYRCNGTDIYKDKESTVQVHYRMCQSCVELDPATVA
Assay: BLI (Octet), mAb 5 ug/mL on FAB2G sensor, hCD3 E/D 200-50 nM

BINDER	koff, s⁻¹
ABL-CD3-70 (antibody, V domains shown, mAb purified from hybridoma; chimeric AlivaMab IgG (human VH, CH1 and upper hinge; mouse middle hinge, CH2, CH3; human light chain)) VH: EVQLVESGGGLVKPGGSLRLSCAASGFTFSTYIMNWVRQAPGKGLEWVSSITSSSSYIYYADSVKGRFTISRDNAKNSLYLQMNSLRAEDTAVYYCAREKWELLFFDYWGQGTLVTVSS VL: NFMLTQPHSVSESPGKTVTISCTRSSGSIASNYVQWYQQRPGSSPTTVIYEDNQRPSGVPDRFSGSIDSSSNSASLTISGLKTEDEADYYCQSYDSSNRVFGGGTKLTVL	0.0101
ABL-CD3-73 (antibody, V domains shown, mAb purified from hybridoma; chimeric AlivaMab IgG (human VH, CH1 and upper hinge; mouse middle hinge, CH2, CH3; human light chain)) VH: EVQLVESGGGLVKPGGSLRLSCAASGFTITSYSMNWVRQAPGKGLEWVSTFSRSSTYIYYADSVKGRFTISRDNAKNSLYLQMNSLRAEDTAVYYCAREKWDLLYFDYWGQGTLVTVSS VL: NFMLTQPHSVSESPGKTVTISCTRSSGSIASNYVQWYQQRPGSSPTTVIYEDNRRPSGVPDRFSGSIDSSSNSASLTISGLKTEDEADYYCQSYDNSNRVFGGGTTLTVL	0.0001
